B1: CPEB3 Ribozyme (parent)
chain: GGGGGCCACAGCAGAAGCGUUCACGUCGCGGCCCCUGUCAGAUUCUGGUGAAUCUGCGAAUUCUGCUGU

- Variants of: B1
- ASSAY OVERVIEW: self-cleavage, relative activity (ratio to wild type); higher = more cleavage; co-transcriptional
Please note: fulfilled applies when self-cleavage is 0.3 or greater, and not fulfilled applies otherwise.

INSERT INTO results (mutant_code, assigned_category) VALUES
  ('G4A C6G', 'not fulfilled'),
  ('A15U A51U', 'fulfilled'),
  ('C6G U55G', 'not fulfilled');

Data request: Please tell me: is the variant G4U A8C at or over 0.3 in terms of self-cleavage?
Data returned: fulfilled

Data request: Also C7A C39G ?
Data returned: fulfilled

Data request: Next variant up: G3U C29G
Data returned: not fulfilled

Data request: What do we get for G25U A60G ?
Data returned: not fulfilled

Data request: Would you kindly repeat that for C29U U62A ?
Data returned: not fulfilled

Data request: Now give it for G3C G56C too.
Data returned: not fulfilled

Data request: Now the same for U26G U61A
Data returned: fulfilled

Data request: Item: A40C A59U
Data returned: fulfilled

Data request: Let us now turn to C32G A51G
Data returned: fulfilled

Data request: Subsequent entry: G19C U43C
Data returned: not fulfilled

Data request: Moving on to G11C A16C
Data returned: not fulfilled

Data request: Same question, G25C A60U this time
Data returned: not fulfilled
